Test system: Leishmania donovani
Test: Antiproliferative activity against Leishmania donovani DI700 promastigotes overproducing ODC enzyme
Assay type: functional, organism-based
Recorded pEC50, one value per entry.
pEC50 field: float, defined as -log10 of concentration (mol/L).

CCCCN [BUTYLAMINE] :: 2.68
N=C(N)c1ccc(/N=N/Nc2ccc(C(=N)N)cc2)cc1 [DIMINAZENE] :: 5.06
CCNCCCCNCCCCNCCCCNCCCCNCCCCNCCCCNCCCCNCCCCNCCCCNCC :: 5.05

Please turn your attention to the following entry.
Task: pEC50 for CCNCCCCNCCCCNCCCCNCCCCNCCCCNCCCCNCCCCNCCCCNCCCCNCCCCNCCCCNCC ?
Result: 5.26

// provenance: ChEMBL document CHEMBL1142196
